# method-summary: clinical
# setup-conditions: human, in vivo, iv, t1/2
The label depends only on half-life: Yes if it is at least 3 h, No if it is smaller.

For orientation, consider the following solved cases.
compound	label-class
C[C@]12CCC(=O)C=C1CC[C@@H]1[C@@H]2[C@@H](O)C[C@@]2(C)[C@H]1CC[C@]2(O)C(=O)CO [HYDROCORTISONE]	No
COc1cc(NS(C)(=O)=O)ccc1Nc1c2ccccc2nc2ccccc12 [AMSACRINE]	Yes
C=CC1=C(C(=O)O)N2C(=O)[C@@H](NC(=O)/C(=N\OCC(=O)O)c3csc(N)n3)[C@H]2SC1 [CEFIXIME]	Yes
O.O=P(O)(O)C(O)(Cn1ccnc1)P(=O)(O)O [ZOLEDRONIC ACID]	Yes
CO/N=C(\C(=O)N[C@@H]1C(=O)N2C(C(=O)O)=CCS[C@H]12)c1csc(N)n1 [CEFTIZOXIME]	No
Cc1ncc([N+](=O)[O-])n1CCO [METRONIDAZOLE]	Yes
O=C(O)c1cc(/N=N/c2ccc(O)c(C(=O)O)c2)ccc1O [OLSALAZINE]	No
O=C1CCc2ccc(OCCCCN3CCN(c4cccc(Cl)c4Cl)CC3)cc2N1 [ARIPIPRAZOLE]	Yes
CCc1cccc2cc(C(O)CNC(C)(C)C)oc12 (stereo not given) [BUFURALOL]	No
CCCCc1ncc(/C=C(\Cc2cccs2)C(=O)O)n1Cc1ccc(C(=O)O)cc1 [EPROSARTAN]	No

Has CN1C(=O)NC(=O)C(C)(C2=CCCCC2)C1=O (stereo not given) [HEXOBARBITAL] a recorded half-life greater than or equal to 3 h? Yes

Has CNCCC=C1c2ccccc2CCc2ccccc21 [NORTRIPTYLINE] a recorded half-life greater than or equal to 3 h? Yes

Has C[C@@H]([C@@H](O)c1ccc(O)cc1)N1CCC(O)(c2ccccc2)CC1 [TRAXOPRODIL] a recorded half-life greater than or equal to 3 h? Yes

Has CN[C@H]1C(=O)N[C@@H]2Cc3ccc(cc3)Oc3cc4cc(c3O[C@@H]3O[C@H](C(=O)O)[C@@H](O)[C@H](O)[C@H]3NC(=O)CCCCCCCCC(C)C)Oc3ccc(cc3Cl)[C@@H](O)[C@@H]3NC(=O)[C@H](NC(=O)[C@@H]4NC(=O)[C@@H](NC2=O)c2cc(cc(O)c2Cl)Oc2cc1ccc2O)c1ccc(O)c(c1)-c1c(O[C@H]2O[C@H](CO)[C@@H](O)[C@H](O)[C@@H]2O)cc(O)cc1[C@@H](C(=O)NCCCN(C)C)NC3=O [DALBAVANCIN] a recorded half-life greater than or equal to 3 h? Yes

====

# setup-conditions: human, in vivo, iv
Measured Vdss values are reported for all entries that follow.
Numbers only; they are read as L/kg.

Examples with answers:
compound	Vdss, L/kg
NCCCC[C@H](NC(=O)[C@@H](Cc1cc(Br)c(O)c(Br)c1)NC(=O)N1CCC(N2Cc3ccccc3NC2=O)CC1)C(=O)N1CCN(c2ccncc2)CC1 [OLCEGEPANT]	0.31
CCC1=C[C@@H]2CN(C1)Cc1c([nH]c3ccccc13)[C@@](C(=O)OC)(c1cc3c(cc1OC)N(C)[C@H]1[C@@](O)(C(=O)OC)[C@H](OC(C)=O)[C@]4(CC)C=CCN5CC[C@]31[C@@H]54)C2 (stereo in doubt; form 2) [VINORELBINE]	23

Here is the next item to consider.
Lab note: measured Vdss of O=[N+]([O-])O[C@@H]1CO[C@H]2[C@@H]1OC[C@@H]2O (stereo in doubt; form 1) [ISOSORBIDE MONONITRATE] was 0.86

====

# method-summary: clinical
# setup-conditions: human, in vivo, iv, CL
observed-property: clearance (mL/min/kg)
Numbers only; they are read as mL/min/kg.

compound	endpoint-value
CC[C@H](C)C[C@H](C)CCCCCCCCC(=O)N[C@H]1C[C@@H](O)[C@@H](NCCN)NC(=O)[C@@H]2[C@@H](O)CCN2C(=O)[C@H]([C@H](O)CCN)NC(=O)[C@H]([C@H](O)[C@@H](O)c2ccc(O)cc2)NC(=O)[C@@H]2C[C@@H](O)CN2C(=O)[C@H]([C@@H](C)O)NC1=O	0.14

Lab note: measured clearance of CN[C@H](CC(C)C)C(=O)N[C@H]1C(=O)N[C@@H](CC(N)=O)C(=O)N[C@H]2C(=O)N[C@H]3C(=O)N[C@H](C(=O)N[C@H](C(=O)O)c4cc(O)cc(O)c4-c4cc3ccc4O)[C@H](O)c3ccc(c(Cl)c3)Oc3cc2cc(c3O[C@@H]2O[C@H](CO)[C@@H](O)[C@H](O)[C@H]2O[C@H]2C[C@](C)(N)[C@H](O)[C@H](C)O2)Oc2ccc(cc2Cl)[C@H]1O was 1.3

Lab note: measured clearance of NC[C@H]1O[C@H](O[C@H]2[C@H](O[C@@H]3O[C@H](CO)[C@@H](O)[C@H]3O)[C@@H](O)[C@H](N)C[C@@H]2N)[C@H](N)[C@@H](O)[C@@H]1O was 1.5

Lab note: measured clearance of CCCCC1=NC2(CCCC2)C(=O)N1Cc1ccc(-c2ccccc2-c2nnn[nH]2)cc1 was 2.3

====

# method-summary: clinical
# setup-conditions: human, in vivo, iv, CL
// boundary case: clearance equal to 5 mL/min/kg maps to 0.0; strictly smaller maps to 1.0

For orientation, consider the following solved cases.
molecule	label-class
CNC(=O)c1cccc2c(Nc3ccc(NS(C)(=O)=O)cc3OC)c3cccc(C)c3nc12	1.0
CC(C)(C)NC[C@H](O)COc1nsnc1N1CCOCC1	0.0
Nc1ncn([C@H]2C[C@H](O)[C@@H](CO)O2)c(=O)n1	0.0

Now consider a different molecule.
Given the entry CCn1cc(C(=O)O)c(=O)c2cc(F)c(N3CCNCC3)nc21 , would its reported clearance be below 5 mL/min/kg? 0.0

====

# method-summary: clinical
# setup-conditions: human, in vivo, iv, t1/2
// boundary case: half-life equal to 6 h maps to label 0; strictly smaller maps to label 1

For orientation, consider the following solved cases.
molecule	label-class
CC[C@@]1(O)C(=O)OCc2c1cc1n(c2=O)Cc2c-1nc1cc(F)c(C)c3c1c2[C@@H](N)CC3	label 0
Cc1cccc(C)c1NC(=O)C(C)N (centres undefined) [TOCAINIDE]	label 0
C[C@@H](c1ncncc1F)[C@](O)(Cn1cncn1)c1ccc(F)cc1F	label 1

Given the entry CCCc1nc2c(C)cc(-c3nc4ccccc4n3C)cc2n1Cc1ccc(-c2ccccc2C(=O)O)cc1 , would its reported half-life be below 6 h? label 0

Given the entry COc1cc2nc(N(C)CCCNC(=O)C3CCCO3)nc(N)c2cc1OC (centres undefined) , would its reported half-life be below 6 h? label 1

Given the entry CCCC1O[C@@H]2C[C@H]3[C@@H]4CCC5=CC(=O)C=C[C@]5(C)[C@H]4[C@@H](O)C[C@]3(C)[C@]2(C(=O)CO)O1 (some centres undefined) [BUDESONIDE] , would its reported half-life be below 6 h? label 1

====

Measured clearance values are reported for all entries that follow.
# method-summary: clinical
# setup-conditions: human, in vivo, iv, CL
Please append the unit to your numeric answer.

Examples with answers:
compound	observed-property	endpoint-value
Cc1cc(O)c2c(=O)c3c(O)cc(O)c4c5c(O)cc(O)c6c(=O)c7c(O)cc(C)c8c1c2c(c34)c(c78)c65 [HYPERICIN]	clearance	0.0078 L/h/kg
COC(=O)CCc1ccc(OCC(O)CNC(C)C)cc1 (stereo unspecified) [ESMOLOL]	clearance	17.4 L/h/kg
COC(=O)O[C@@]12CO[C@@H]1C[C@H](O)[C@@]1(C)C(=O)[C@H](OC(C)=O)C3=C(C)[C@@H](OC(=O)[C@H](O)[C@@H](NC(=O)c4ccccc4)c4ccccc4)C[C@@](O)([C@@H](OC(=O)c4ccccc4)[C@H]21)C3(C)C [BMS-188797]	clearance	0.516 L/h/kg
COc1cc(OC)c(C(=O)CCCN2CCCC2)c(OC)c1 [BUFLOMEDIL]	clearance	0.336 L/h/kg
CCCCCC/C=C\CCCCCCCCCC(=O)N[C@H]1[C@H](OC[C@H]2O[C@H](OP(=O)(O)O)[C@H](NC(=O)CC(=O)CCCCCCCCCCC)[C@@H](OCCCCCCCCCC)[C@@H]2O)O[C@H](COC)[C@@H](OP(=O)(O)O)[C@@H]1OCC[C@@H](CCCCCCC)OC [ERITORAN]	clearance	0.00078 L/h/kg

Here is the next item to consider.
Lab note: measured clearance of CC(C)NCC(O)COc1ccc(CCOCC2CC2)cc1 (stereo unspecified) [BETAXOLOL] was 0.204 L/h/kg

====

# method-summary: clinical
# setup-conditions: human, in vivo, iv, CL
observed-property: clearance (mL/min/kg)
Numbers only; they are read as mL/min/kg.

Examples with answers:
> print(dat)
                                smiles.data  endpoint.value
1  CC(=O)[C@]1(O)Cc2c(O)c3c(c(O)c2[C@@H](O[C@H]2C[C@H](N)[C@H](O)[C@H](C)O2)C1)C(=O)c1ccccc1C3=O              24
2              c1ccc(C2(N3CCCCC3)CCCCC2)cc1             5.1
3  O=C1OC2(c3ccc(O)cc3Oc3cc(O)ccc32)c2ccccc21             1.3
4                 CCCc1cc(=O)[nH]c(=S)[nH]1             3.1

Here is the next item to consider.
Lab note: measured clearance of Cc1cccc([C@H](C)c2cnc[nH]2)c1C was 11
